- Test: physchem
- Type: physicochemical
Measured Attribute: pKa

>  <Query Smiles>
N[C@H](C(=O)O)[C@H](O)c1ccc(O)c(O)c1

>  <Value Measured>
7.88

$$$$

Provenance of the data: patent US20010007856A1
